test: Oral pharmacokinetics in mice; format: in vivo; settings: mouse, in vivo, oral
measure: Tmax

{"columns": ["sample-smiles", "Tmax"],
 "data": [
  ["CNc1n[nH]c2ncc(-c3ccc(CNc4ncc(C#N)nc4C(=O)N[C@@H](C)c4ccc(F)c(F)c4)cc3)cc12", "4 to 8 h"]
]}

Now look at this entry.
Which value of Tmax has been reported for C[C@H](NC(=O)c1nc(C#N)cnc1NCc1ccc(-c2cnc3[nH]nc(N)c3n2)cc1)c1ccc(F)c(F)c1 in the records? 4 to 8 h

* * *

system: MV4-11; test: MTS cell proliferation assay, MV4-11; format: cell-based, human; details: Homo sapiens, MV4-11, 72 h, read-out: MTS proliferation assay (μM)
measure: EC50 (µM)
Numeric only. Scale: µM

Which value of EC50 has been reported for CNc1nc(-c2ccc3c(N)n[nH]c3c2)cc(N2C[C@@H](C(=O)NC3CCCCC3)CC[C@H]2C)n1 [GSK2334470, reference compound] in the records? 0.105

* * *

Quick reference for bioavailability among some compounds
experiment: Oral pharmacokinetics in mice; type: in vivo; conditions: mouse, in vivo, oral, read-out: oral bioavailability % F

{"columns": ["sample-smiles", "result"],
 "data": [
  ["C[C@H](NC(=O)c1nc(C#N)cnc1NCc1ccc(-c2cnc3[nH]nc(N)c3n2)cc1)c1ccc(F)c(F)c1", "> 40%"]
]}

Now look at this entry.
Which value of bioavailability has been reported for CNc1n[nH]c2ncc(-c3ccc(CNc4ncc(C#N)nc4C(=O)N[C@@H](C)c4ccc(F)c(F)c4)cc3)cc12 in the records? > 40%

* * *

system: C1498; experiment: MTS cell proliferation assay, C1498; assay type: cell-based, murine; conditions: Mus musculus, C1498, 72 h, read-out: MTS proliferation assay (μM)
measure: EC50 (µM)
Numeric only. Scale: µM

Please tell me: EC50 of CNc1nc(-c2ccc3c(N)n[nH]c3c2)cc(N2C[C@@H](C(=O)NC3CCCCC3)CC[C@H]2C)n1 [GSK2334470, reference compound] , system C1498? 0.358

* * *

Quick reference for EC50 among some compounds
tested on: CMK; experiment: MTS cell proliferation assay, CMK; assay type: cell-based; details: Homo sapiens, 72 hr
Numeric only. Scale: nM

Consider the reported EC50 for these compounds:
{"columns": ["sample-smiles", "unit", "quantitative-readout"],
 "data": [
  ["C[C@H](NC(=O)c1nc(C#N)cnc1NCc1ccc(-c2cnc3[nH]nc(N)c3c2)cc1)c1ccc(F)c(F)c1", "nM", 278],
  ["C[C@H](NC(=O)c1nc(C#N)cnc1NCc1ccc(-c2cnc3[nH]nc(N)c3n2)cc1)c1ccc(F)c(F)c1", "nM", 222]
]}

Which value of EC50 has been reported for CNc1n[nH]c2ncc(-c3ccc(CNc4ncc(C#N)nc4C(=O)N[C@@H](C)c4ccc(F)c(F)c4)cc3)cc12 in the records? 182
